# maps each entry to its IC50
Biological target: α-glucosidase
Experiment: α-glucosidase inhibitory activity (p-nitrophenyl-α-D-glucopyranoside method)
Assay type: biochemical
Conditions: mean ± SEM of three parallel measurements; read-out: antidiabetic inhibition activity IC50, α-glucosidase
Give just the number in µM; leave the unit off.

// known answers, use as guide
CC(=NNC(=O)c1ccc(I)cc1)c1ccc(S(=O)(=O)NC(=O)NC2CCCCC2)cc1 [compound 4]: 85
CC(=NNC(=O)c1ccc(C)cc1)c1ccc(S(=O)(=O)NC(=O)NC2CCCCC2)cc1 [compound 7]: 46.1
C/C(=N\NC(=O)c1cccc2ccccc12)c1ccc(S(=O)(=O)NC(=O)NC2CCCCC2)cc1 [compound 11]: 57.1

Which IC50 is reported for this compound? CC(=NNC(=O)c1cccc([N+](=O)[O-])c1)c1ccc(S(=O)(=O)NC(=O)NC2CCCCC2)cc1 [compound 9]
61.2
